assay-target: HIV-1 integrase (Human immunodeficiency virus type 1 group M subtype B)
assay-method-text: Assembly of HIV-1 integrase as catalytically active complex
Format: biochemical
Design: HIV-1 Integrase
measured-quantity: pIC50
# pIC50 = -log10(concentration in molar units)

smiles-structure	pIC50
Cc1[nH]cnc1C(=O)NNC1=Nc2ccc(Br)cc2C(c2ccccc2Cl)=NC1	5.00

Attention now turns to another entry.
Quote pIC50 reported for `O=C(NNC1=Nc2ccccc2C(c2ccccc2)=NC1)c1cnccn1` please. 5.30

---

assay-target: UniProtKB P04585
assay-method-text: biochemical
Parameters: HIV-1 integrase
measured-quantity: IC50 (nM)
Give the quantity in nM, number only.

smiles-structure	assay-target	IC50 [nM]
O=C(NNC1=Nc2ccccc2C(c2ccccc2)=NC1)c1cnccn1	UniProtKB P04585	2000

Attention now turns to another entry.
Quote IC50 reported for `Cc1[nH]cnc1C(=O)NNC1=Nc2ccc(Br)cc2C(c2ccccc2Cl)=NC1` please. 2000
